# Test system: Staphylococcus aureus WX1-009
I'd be grateful if you could share measured MIC for these entries.

# CNCc1ccc(-c2ccc(C3(O)C4CN(C)CC3CN(C(=O)Nc3cc(F)cc(F)c3)C4)nc2)c(C#N)c1 (stereo not shown) with Staphylococcus aureus WX1-009: MIC is ≤ 0.11 µg/mL

# C[C@H]1COc2c(N3CCN(C)CC3)c(F)cc3c(=O)c(C(=O)O)cn1c23 [Levofloxin, reference compound] with Staphylococcus aureus WX1-009: MIC is > 2 µg/mL

# CN1CC2CN(C(=O)Nc3cc(F)cc(F)c3)CC(C1)C2(O)c1ccc(-c2ccc(CN)cc2C#N)cc1 (stereo not shown) with Staphylococcus aureus WX1-009: MIC is ≤ 0.06 µg/mL

# CN1CC2CN(C(=O)Nc3cc(F)cc(F)c3)CC(C1)C2(O)c1ccc(-c2ccc(CN)cc2C#N)cn1 (stereo not shown) with Staphylococcus aureus WX1-009: MIC is 0.25 µg/mL

###

READOUT KIND: MIC (µg/mL)
Write the value in µg/mL as a bare number.

# CN1CC2CN(C(=O)Nc3cc(F)cc(F)c3)CC(C1)C2(O)c1ccc(-c2ccc(CN)cc2C#N)cn1 (stereo not shown) with Staphylococcus aureus NRS-100: MIC is 0.25

# CN1CC2CN(C(=O)Nc3cc(F)cc(F)c3)CC(C1)C2(O)c1ccc(-c2ccc(CN)cc2C#N)cc1 (stereo not shown) with Staphylococcus aureus NRS-100: MIC is 0.13

# CNCc1ccc(-c2ccc(C3(O)C4CN(C)CC3CN(C(=O)Nc3cc(F)cc(F)c3)C4)nc2)c(C#N)c1 (stereo not shown) with Staphylococcus aureus NRS-100: MIC is 0.22

# C[C@H]1COc2c(N3CCN(C)CC3)c(F)cc3c(=O)c(C(=O)O)cn1c23 [Levofloxin, reference compound] with Staphylococcus aureus NRS-100: MIC is 0.5

###

# METHOD: in vivo
# Set-up: species or system mice
# TEST PARAMETERS: mouse, iv, 10 mg/kg
I'd be grateful if you could share measured clearance for these entries.
Write the value in mL/min/kg as a bare number.

Reported clearance of CN1CC2CN(C(=O)Nc3cc(F)cc(F)c3)CC(C1)C2(O)c1ccc(-c2ccc(CN)cc2C#N)cc1 (stereo not drawn) : 9.78

Reported clearance of CN1CC2CN(C(=O)Nc3cc(F)cc(F)c3)CC(C1)C2(O)c1ccc(-c2ccc(CN)cc2C#N)cn1 (stereo not drawn) : 13.9

Reported clearance of CNCc1ccc(-c2ccc(C3(O)C4CN(C)CC3CN(C(=O)Nc3cc(F)cc(F)c3)C4)nc2)c(C#N)c1 (stereo not drawn) : 8.86

###

READOUT KIND: MIC (µg/mL)
Write the value in µg/mL as a bare number.

# C[C@H]1COc2c(N3CCN(C)CC3)c(F)cc3c(=O)c(C(=O)O)cn1c23 [Levofloxin, reference compound] with Serratia marcescens Bizio ATCC-29021: MIC is 0.13

# CNCc1ccc(-c2ccc(C3(O)C4CN(C)CC3CN(C(=O)Nc3cc(F)cc(F)c3)C4)nc2)c(C#N)c1 (stereo not shown) with Serratia marcescens Bizio ATCC-29021: MIC is 3.56

# CN1CC2CN(C(=O)Nc3cc(F)cc(F)c3)CC(C1)C2(O)c1ccc(-c2ccc(CN)cc2C#N)cn1 (stereo not shown) with Serratia marcescens Bizio ATCC-29021: MIC is 16

# CN1CC2CN(C(=O)Nc3cc(F)cc(F)c3)CC(C1)C2(O)c1ccc(-c2ccc(CN)cc2C#N)cc1 (stereo not shown) with Serratia marcescens Bizio ATCC-29021: MIC is 4
